Data origin, for the record: patent US20200262868A1

- Target entity: human NK1 Receptor (human, UniProt P25103 1-407)
- Sequence (P25103 whole entry): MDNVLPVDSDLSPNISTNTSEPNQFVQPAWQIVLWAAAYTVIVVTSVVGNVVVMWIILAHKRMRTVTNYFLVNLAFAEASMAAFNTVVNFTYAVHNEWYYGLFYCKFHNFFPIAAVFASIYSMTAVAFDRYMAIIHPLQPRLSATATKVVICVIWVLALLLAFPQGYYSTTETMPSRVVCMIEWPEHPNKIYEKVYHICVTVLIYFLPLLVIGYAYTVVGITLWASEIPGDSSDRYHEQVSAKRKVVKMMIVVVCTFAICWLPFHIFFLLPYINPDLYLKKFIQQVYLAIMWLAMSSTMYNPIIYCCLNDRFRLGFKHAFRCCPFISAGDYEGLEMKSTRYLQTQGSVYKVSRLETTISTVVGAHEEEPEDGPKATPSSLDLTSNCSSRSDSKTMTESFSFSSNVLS
- Protocol description: cell-based or functional assay
Where no end group is shown, it is not given here. [ ]: non-standard residue; d: D form. NMeL = CN[C@@H](CC(C)C)C(=O)O
Measured hNK1 EC50 (intracellular calcium mobilization, FLIPR, CHO-hNK1 cells) by item
Quantity kind: hNK1 EC50 (intracellular calcium mobilization, FLIPR, CHO-hNK1 cells) (nM)

Binder	Units label	Measurement
DKFVALX (HELM PEPTIDE1{D.K.F.V.[bAla].L.[Nle].[am]}$$$$V2.0; N-terminus assumed; SMILES CCCC[C@H](NC(=O)[C@H](CC(C)C)NC(=O)CCNC(=O)[C@@H](NC(=O)[C@H](Cc1ccccc1)NC(=O)[C@H](CCCCN)NC(=O)[C@@H](N)CC(=O)O)C(C)C)C(N)=O, synthetic heptapeptide analog of neurokinin A, Fmoc solid-phase synthesis; also called Compound G; Cmpd G) [Heptapeptide analog G, Asp-Lys-Phe-Val-(β-Ala)-Leu-Nle-NH2]	nM	78.2
DRFVALX (HELM PEPTIDE1{D.R.F.V.[bAla].L.[Nle].[am]}$$$$V2.0; N-terminus assumed; SMILES CCCC[C@H](NC(=O)[C@H](CC(C)C)NC(=O)CCNC(=O)[C@@H](NC(=O)[C@H](Cc1ccccc1)NC(=O)[C@H](CCCNC(=N)N)NC(=O)[C@@H](N)CC(=O)O)C(C)C)C(N)=O, synthetic heptapeptide analog of neurokinin A, Fmoc solid-phase synthesis; also called Compound K; Cmpd K) [Heptapeptide analog K, Asp-Arg-Phe-Val-(β-Ala)-Leu-Nle-NH2]	nM	29.5
DRFVGLM (HELM PEPTIDE1{D.R.F.V.G.[meL].M.[am]}$$$$V2.0; N-terminus assumed; SMILES CSCC[C@H](NC(=O)[C@H](CC(C)C)N(C)C(=O)CNC(=O)[C@@H](NC(=O)[C@H](Cc1ccccc1)NC(=O)[C@H](CCCNC(=N)N)NC(=O)[C@@H](N)CC(=O)O)C(C)C)C(N)=O, synthetic heptapeptide analog of neurokinin A, Fmoc solid-phase synthesis; also called Compound C; Cmpd C) [Heptapeptide analog C, Asp-Arg-Phe-Val-Gly-(NMe-Leu)-Met-NH2]	nM	0.3
DKFVALM (HELM PEPTIDE1{D.K.F.V.[bAla].L.M.[am]}$$$$V2.0; N-terminus assumed; SMILES CSCC[C@H](NC(=O)[C@H](CC(C)C)NC(=O)CCNC(=O)[C@@H](NC(=O)[C@H](Cc1ccccc1)NC(=O)[C@H](CCCCN)NC(=O)[C@@H](N)CC(=O)O)C(C)C)C(N)=O, synthetic heptapeptide analog of neurokinin A, Fmoc solid-phase synthesis; also called Compound E; Cmpd E) [Heptapeptide analog E, Asp-Lys-Phe-Val-(β-Ala)-Leu-Met-NH2]	nM	6.31
DKFVG[NMeL]M-NH2 (synthetic heptapeptide analog of neurokinin A, Fmoc solid-phase synthesis; also called Compound A; Cmpd A) [Heptapeptide analog A, Asp-Lys-Phe-Val-Gly-(NMe-Leu)-Met-NH2]	nM	0.95
